Ref: PubChem BioAssay (NCI)

- Tested on: RXF 393 renal
- Test details: NCI-60 one-dose screen, 48 h (100 = growth as untreated, 0 = no growth, -100 = all killed)
- Run conditions: 10 µM unless noted
This is part of a sample that, as a whole, favours compounds with a hit. Of some 83,000 tested, about 20% had one in any assay. Active and inactive are the calls of the source. How the source made its calls: active means growth percent below 10; inactive means the rest.
Known growth of a selection of compounds

compound=O=C(Nc1ccc(/C=C2\SC(=O)N(Cc3ccc(OC(F)(F)F)cc3)C2=O)cc1)c1ccc(Cl)c([N+](=O)[O-])c1 test_target="RXF 393 renal" readout_label=growth reported_measurement="83.5% (inactive)"
compound="N#CC1=C(N)Oc2ccc3ccccc3c2C1c1ccccc1 (stereo unspecified)" test_target="RXF 393 renal" readout_label=growth reported_measurement="23.3% (inactive)"
compound=N=C(N)N=Nc1ccc(O)cc1 test_target="RXF 393 renal" readout_label=growth reported_measurement="20.8% [100 µM] (inactive)"
compound=C[C@H]1OC(=O)/C=C/[C@@H](O)[C@@H](O)CCCCCCCC[C@@H]1O test_target="RXF 393 renal" readout_label=growth reported_measurement="107% (inactive)"

# ---- query compound ----
Tell me the measured growth of CCN1CCN(C(=O)[C@@]2(C)CC[C@]3(C)CC[C@]4(C)C(=CC(=O)[C@@H]5[C@@]6(C)CC[C@H](OC7C[C@@H](O)[C@@H](O)C(C)O7)C(C)(C)[C@@H]6CC[C@]54C)[C@@H]3C2)CC1 (stereo partly specified) , please.
60.4% (inactive)
